# Species on record: Rattus norvegicus
# Protocol Notes: Inhibition of GABA-mediated currents by compound
# Assay type: functional
Outcome Measure: pKi
Remember the convention: pKi equals -log10 of concentration in molar.

# pKi of CC(=O)[C@H]1CC[C@H]2[C@@H]3CC[C@@H]4C[C@H](OS(=O)(=O)O)CC[C@]4(C)[C@H]3CC[C@]12C = 4.41

# pKi of CC(=O)[C@@H]1CC[C@H]2[C@@H]3CC[C@H]4C[C@@H](OS(=O)(=O)O)CC[C@@]4(C)[C@H]3CC[C@@]12C = 4.33

---

# Assay Target: GABA-A receptor; anion channel
# Protocol Notes: Inhibitory activity against Gamma-aminobutyric acid A (GABA-A) receptor of rat hippocampal neurons
# Format: tissue-based, Hippocampus
Outcome Measure: IC50 (µM)
Number only, in µM; omit the unit.

# IC50 of CC(=O)[C@H]1CC[C@H]2[C@@H]3CC[C@@H]4C[C@H](OS(=O)(=O)O)CC[C@]4(C)[C@H]3CC[C@]12C = 39

# IC50 of C[C@@]12CC[C@@H]3[C@H](CC=C4C[C@H](OS(=O)(=O)O)CC[C@]43C)[C@H]1CCC2=O = 80

# IC50 of CC(=O)[C@H]1CC[C@H]2[C@@H]3CC=C4C[C@@H](OS(=O)(=O)O)CC[C@]4(C)[C@H]3CC[C@]12C = 82

# IC50 of C[C@]12CC[C@H](OS(=O)(=O)O)CC1=CC[C@@H]1[C@@H]2CC[C@]2(C)C(=O)CC[C@@H]12 = 11

# IC50 of CC(=O)[C@@H]1CC[C@@H]2[C@H]3CC=C4C[C@H](OS(=O)(=O)O)CC[C@@]4(C)[C@@H]3CC[C@]21C = 76
